Compiled record: IC50 values for Tyrosine-protein kinase JAK1 (Homo sapiens) across several sources.
Value Type: IC50

1. CC[C@H](Cn1ccc2cnc(Nc3cnn(CC(=O)OC4COC4)c3)nc21)C(C)C : < 100 nM
2. Cn1cc(-c2cc3nccn3c(-c3cnn(C4(CCF)CN(S(=O)(=O)C(F)F)C4)c3)n2)cn1 : 10 to 100 nM
3. Cc1cc(C)cc(C(=O)Nc2cccc3c(-c4ccnc(NC(=O)C5CC5)c4)c[nH]c23)c1 : < 100 nM
4. CS(=O)(=O)N1CCN(c2ccc(Nc3nc(Nc4cccc(S(N)(=O)=O)c4)c4cc[nH]c4n3)cc2)CC1 : > 1000 nM

====

Compiled record: IC50 values for Tyrosine-protein kinase JAK1 (Homo sapiens, UniProt P23458) across several sources.
Value Type: IC50

1. N#CCC(C1CC1)n1cc(-c2nc(-c3cnco3)cc3nccn23)cn1 (centres unmarked) : > 1000 nM
2. NC(=O)c1cnc(Nc2ccc3c(c2)NC[C@H](O)CO3)nc1NCC1CCC1 : < 10 nM
3. O=C(NCC(F)(F)F)C1CN(Nc2ncnc3[nH]ccc23)CCO1 (centres unmarked) : 10 to 100 nM
4. CN(c1ncnc2[nH]ccc12)N1CCCC(CC(=O)NCC(F)(F)F)C1 (centres unmarked) : 100 to 1000 nM
5. Cn1cc(-c2cc3nccn3c(-c3ccn(C(CCF)C4CC4)c3)n2)cn1 (centres unmarked) : 10 to 100 nM
6. N#CCCN1CCN(n2cnc3cnc4[nH]ccc4c32)CC1 : 5.2 nM
7. CN(c1ncnc2[nH]ccc12)C1CCC2(CC1)CCN(C(=O)C1CCC(=O)CC1)CC2 : 100 to 1000 nM
8. COc1cc(Nc2ncc3ccn(-c4cccc(NS(=O)(=O)C(C)(C)C)c4)c3n2)ccc1N1CCNCC1 : 275 nM
9. Cn1cc(-c2cc3nccn3c(-c3cnn(C(CCF)C4CCC4)c3)n2)cn1 (centres unmarked) : 100 to 1000 nM
10. COc1ccc(OC)c(NC(=O)N2CCC(N3CC(CC#N)(n4cc(-c5ncnc6[nH]ccc56)cn4)C3)CC2)c1 : ≤ 5 nM
11. C[C@H]1C[C@@H](Nc2c(-c3ncc(S(C)(=O)=O)s3)cnc3[nH]ccc23)CN(C(=O)CC#N)C1 : ≤ 10 nM
12. CCN(c1nccnc1CNc1nc(-c2cc(F)c(O)cc2CC(F)(F)F)cc2[nH]nc(C(=O)NC)c12)S(C)(=O)=O : 4 nM
13. CC#CCn1ccc2cnc(Nc3cnn(CC(=O)OCC)c3)nc21 : 100 to 1000 nM
14. CN(c1ncnc2[nH]ccc12)C1CCC2(CC1)CCN(C(=O)Nc1cccc(C#N)c1)CC2 : ≤ 10 nM
15. CN1CCC(NC(=O)c2ccc(Nc3ncc4ccn(-c5cccc(NS(=O)(=O)C(C)(C)C)c5)c4n3)cc2F)CC1 : 57 nM
16. N#Cc1cc(C(=O)Nc2cccc3c2ccn3-c2ccnc(NC(=O)C3CC3)c2)ccn1 : > 1000 nM
17. CN1CCN2c3ccc(Nc4ncc(C(N)=O)c(NC5CC5)n4)cc3OC[C@H]2C1 : < 100 nM

====

Compiled record: pIC50 values for Tyrosine-protein kinase JAK1 (Homo sapiens, UniProt P23458) across several sources.
pIC50: −log10 of the molar value.
Value Type: pIC50

1) CN(C)c1c(F)c(F)c(C(=O)N2CCC(N3CC(CC#N)(n4cc(-c5ncnc6[nH]ccc56)cn4)C3)CC2)c(F)c1F : ≥ 8.30
2) CC1=C(C)c2cc(Nc3nn(C4COCCC4C#N)cc3C(N)=O)cc(C)c2OB1O (stereo not drawn) : > 8.00
3) CCOC(=O)c1cnc2[nH]ccc2c1N[C@H]1CC[C@H](OC(=O)CC#N)C1 (single isomer, unassigned) : ≥ 8.00
4) N#CCC1(n2cc(-c3ncnc4[nH]ccc34)cn2)CN(C2CCN(C(=O)c3ccc(F)c(Cl)c3)CC2)C1 : 7.70 to 8.30
5) O=C1NCCCCOCc2cc(ccc2OC2CCCC2)Nc2nccc(n2)-c2ccc1cc2[N+](=O)[O-] : < 5.00
6) CCC(Cn1ccc2cnc(Nc3cnn(CC(=O)OC(C)C)c3)nc21)CC(F)(F)F (stereo not drawn) : > 7.00
7) N#CC[C@]1(n2cc(-c3ncnc4[nH]ccc34)cn2)C[C@H](N2CCC(Oc3cc(CN4CC(O)C4)cc(C(F)(F)F)n3)CC2)C1 : > 8.00
8) Nc1cc2ccc1-c1ccnc(n1)Nc1ccc(N3CCOCC3)c(c1)COCCCCCNC2=O : 6.00 to 7.00
9) CCc1cc(O)c(F)cc1-c1cc2[nH]nc(-c3nc(C)c(C)[nH]3)c2c(NCc2ccccc2N(C)S(C)(=O)=O)n1 : 8.28
10) Cc1cnc2nc1NCCCCCCCNC(=O)c1ccc(cc1F)-c1cnc(F)c(c1)N2 : 6.00 to 7.00
11) CCOC(=O)c1cnc2[nH]ccc2c1-c1cnn([C@H](CC#N)C2CCCC2)c1 (single isomer, unassigned; stereoisomer 1) : ≥ 8.00
12) [2H]C([2H])([2H])O[C@H]1CNc2cc(Nc3ncc(C(N)=O)c(NC4CC4)n3)ccc2OC1 : > 8.00
13) CN(c1ncnc2[nH]ccc12)C1CC2(C1)CN(C(=O)c1cc(F)c(C#N)c(F)c1)C2 : 7.00 to 8.00
14) C[C@H](CC(N)=O)n1c(=O)[nH]c2cnc(-c3cnc4ccc(F)cn34)nc21 : < 6.00
15) N#CCC1(n2cc(-c3nc(-c4cnn(C5CCC5)c4)cc4nccn34)cn2)CN(CC(F)(F)F)C1 : 7.00 to 8.00

====

pIC50: −log10 of the molar value.
Compiled record: pIC50 values for Tyrosine-protein kinase JAK1 (Homo sapiens, UniProt P23458) across several sources.
Value Type: pIC50

1. CC(=O)NC[C@H]1CC[C@H](n2c([C@@H](C)O)nc3cnc4ccsc4c32)CC1 : ≥ 7.00
2. CS(=O)(=O)N1CCC(CCNC(=O)c2noc3c2CN(c2ncnc4[nH]ccc24)CC3)C1 (centres unmarked) : < 5.70
3. N#CCC1(n2cc(-c3ncnc4[nH]ccc34)cn2)CN(C2CCN(C(=O)c3cc(Cl)cc(Cl)c3)CC2)C1 : ≥ 8.30
4. CCOC(=O)c1cnc2[nH]ccc2c1NC1CCC(OCCC#N)C1 (centres unmarked) : 7.00 to 8.00
5. COCCC1(n2cc(-c3nc(-c4cnn(C)c4)cc4nccn34)cn2)CN(S(=O)(=O)C(F)(F)F)C1 : < 6.00
6. CCC(=O)N1CCC2(CCC(N(C)c3ncnc4[nH]ccc34)CC2)CC1 : 6.00 to 7.00
7. N#CCC1(n2cc(-c3ncnc4[nH]ccc34)cn2)CN(C2CCN(C(=O)Nc3cscc3Br)CC2)C1 : ≥ 8.30
8. Cc1n[nH]cc1-c1cn(C2(CC#N)CN(c3cc(F)c(C(=O)N[C@@H](C)C(F)(F)F)cc3F)C2)nc1CO : > 6.52
9. COC(=O)c1cc2ccc1C(=O)NCCCCCNc1nc(ncc1C)Nc1cc-2cnc1F : 6.00 to 7.00
10. Cc1cc(Nc2ncc(C)c(N3CC(CC(F)F)C3)n2)sn1 : > 7.60
11. O=C1NCCCCCc2cc(ccc2N2CCOCC2)Nc2nccc(n2)-c2ccc1cc2 : 6.00 to 7.00
12. N#CC1CCOCC1n1cc(C(N)=O)c(Nc2ccc3c(c2)B(O)OCC3)n1 (centres unmarked) : > 8.00
13. C[C@H](Nc1cccc(Nc2ccc[nH]c2=O)n1)c1ccc(F)cn1 : 6.00 to 7.00
14. CN(c1ncnc2[nH]ccc12)C1CCC2(CC1)CCN(C(=O)c1cccc(C#N)c1)CC2 : 6.00 to 7.00
15. COc1ccc(C(=O)Nc2ccc(C)c(-c3ccc4c(c3)[nH]c3ncncc34)c2)cc1C(F)(F)F : ≥ 6.30
16. CCC(Cn1ccc2cnc(Nc3cnn(CC(=O)O)c3)nc21)C(C)C (centres unmarked) : > 7.00
17. Cc1cnc(NC(=O)C2CC2)cc1-c1c[nH]c2c(NC(=O)CC#N)cccc12 : 6.00 to 7.00
18. CC[C@@H](Cn1ccc2cnc(Nc3cnn(CC(=O)OC(C)C)c3)nc21)C(C)C : > 7.00
19. O=C1NCCCCOCc2cc(ccc2N2CCOCC2)Nc2nccc(n2)-c2ccc1cc2C(F)(F)F : 5.00 to 6.00
20. COc1cncc(C(CC#N)n2cc(-c3nc(-c4cnn(C)c4)cc4nccn34)cn2)c1 (centres unmarked) : 6.00 to 7.00
21. Cc1cc(Nc2ncc(C)c(N3CC(CC#N)(N4CCN(C)C(CCF)C4)C3)n2)sn1 (centres unmarked) : > 8.00
22. N#CCC1(n2cc(-c3c(F)cnc4[nH]ccc34)cn2)CN(C2CCN(C(=O)c3ccncc3F)CC2)C1 : ≥ 8.30
23. CCOC(=O)c1cnc2[nH]ccc2c1NC1CCC(CCC#N)C1 (single isomer, unassigned; stereoisomer 2) : 6.00 to 7.00
24. O=C(NCCC(F)(F)F)c1nn(CCCc2ccccn2)c2c1CN(c1ncnc3[nH]ccc13)CC2 : < 5.70
25. O=C(Nc1cccc(-c2ccc3c(c2)[nH]c2ncncc23)c1)c1cccc(C(F)(F)F)c1 : ≥ 6.30
26. Cc1ccc(NC(=O)c2cc(NCCN3CCOCC3)cc(C(F)(F)F)c2)cc1-c1ccc2c(c1)[nH]c1ncncc12 : ≥ 6.30
27. Cc1c2ccc(Nc3ncc(Cl)c(NC4CCN(c5ccc(C#N)cn5)CC4)n3)cc2nn1C : 9.52
28. N#CCC1(n2cc(-c3ncnc4[nH]ccc34)cn2)CN(C2CCN(C(=O)c3cc(F)c(F)c(F)c3F)CC2)C1 : 7.70 to 8.30
29. CCS(=O)(=O)N1CCC2(CCC(N(C)c3ncnc4[nH]ccc34)CC2)CC1 : 6.00 to 7.00
30. CN(c1ncnc2[nH]ccc12)C1CC2(C1)CN(C(=O)Cc1ccc(C#N)cc1)C2 : 6.00 to 7.00
31. N#CCC1(n2cc(-c3ccnc4[nH]ccc34)cn2)CN(C2CCN(C(=O)Nc3ccc(C#N)cc3Cl)CC2)C1 : ≥ 8.30
32. Cn1cc(-c2cc3nccn3c(-c3cnn(C(CC#N)c4cccc(C(F)(F)F)c4)c3)n2)cn1 (centres unmarked) : 7.00 to 8.00
